The reader will find reported % inhibition at 100 µM values listed item by item below.
- SUBJECT OF TEST: T1, CathepsinG, from human neutrophils (human, UniProt P08311 21-244)
- T1 construct: purified natural enzyme, bought
- T1 sequence (looked up): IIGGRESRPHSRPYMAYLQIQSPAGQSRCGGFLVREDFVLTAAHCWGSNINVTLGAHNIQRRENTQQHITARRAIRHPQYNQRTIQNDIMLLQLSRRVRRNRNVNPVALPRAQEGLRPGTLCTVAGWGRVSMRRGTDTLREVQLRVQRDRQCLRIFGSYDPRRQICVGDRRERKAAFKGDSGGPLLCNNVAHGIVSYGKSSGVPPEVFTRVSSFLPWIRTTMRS
- ASSAY: enzyme inhibition, pNA substrate
Bridges are numbered along the chain shown (N, C = ends). [ ]: non-standard residue; d: D form. Nle = CCCC[C@H](N)C(=O)O
The response must be a number in % with no trailing unit.

Below are worked cases with known answers.
BINDER	% inhibition at 100 µM [%]
cyclo([Nle]CAASIPPQCY[dP]P) (disulfide 2-10, also called Ex. 86) [Example 86]	47
XCTASXPPQCY (HELM PEPTIDE1{[Nle].C.T.A.S.[Cha].P.P.Q.C.Y.[dP].P}$PEPTIDE1,PEPTIDE1,2:R3-10:R3|PEPTIDE1,PEPTIDE1,1:R1-13:R2$$$V2.0; SMILES CCCC[C@@H]1NC(=O)[C@@H]2CCCN2C(=O)[C@H]2CCCN2C(=O)[C@H](Cc2ccc(O)cc2)NC(=O)[C@@H]2CSSC[C@H](NC1=O)C(=O)N[C@@H]([C@@H](C)O)C(=O)N[C@@H](C)C(=O)N[C@@H](CO)C(=O)N[C@@H](CC1CCCCC1)C(=O)N1CCC[C@H]1C(=O)N1CCC[C@H]1C(=O)N[C@@H](CCC(N)=O)C(=O)N2, also called Ex. 141) [Example 141]	63.4
XQTASIPPQTY (HELM PEPTIDE1{[CCCCCCCC[C@H](N[*:1])C(=O)[*:2]].Q.T.A.S.I.P.P.Q.T.Y.[dP].P}$PEPTIDE1,PEPTIDE1,1:R1-13:R2$$$V2.0; SMILES CCCCCCCC[C@@H]1NC(=O)[C@@H]2CCCN2C(=O)[C@H]2CCCN2C(=O)[C@H](Cc2ccc(O)cc2)NC(=O)[C@H]([C@@H](C)O)NC(=O)[C@H](CCC(N)=O)NC(=O)[C@@H]2CCCN2C(=O)[C@@H]2CCCN2C(=O)[C@H]([C@@H](C)CC)NC(=O)[C@H](CO)NC(=O)[C@H](C)NC(=O)[C@H]([C@@H](C)O)NC(=O)[C@H](CCC(N)=O)NC1=O) [Example 154]	27

Could you now consider this next binder?
Query: Determine from records and report % inhibition at 100 µM for XQTASIPPQTY (HELM PEPTIDE1{[Nle].Q.T.A.S.I.P.P.Q.T.Y.[dP].P}$PEPTIDE1,PEPTIDE1,1:R1-13:R2$$$V2.0; SMILES CCCC[C@@H]1NC(=O)[C@@H]2CCCN2C(=O)[C@H]2CCCN2C(=O)[C@H](Cc2ccc(O)cc2)NC(=O)[C@H]([C@@H](C)O)NC(=O)[C@H](CCC(N)=O)NC(=O)[C@@H]2CCCN2C(=O)[C@@H]2CCCN2C(=O)[C@H]([C@@H](C)CC)NC(=O)[C@H](CO)NC(=O)[C@H](C)NC(=O)[C@H]([C@@H](C)O)NC(=O)[C@H](CCC(N)=O)NC1=O, also called Ex. 109) [Example 109]
Reply: 54.1
